biological target: Glucocorticoid receptor (Homo sapiens); test: Transrepression of glucocorticoid receptor in human A549 cells assessed as inhibition of PMA-induced AP-1 activity by luciferase reporter gene assay; assay type: cell-based
Sequence (P04150 whole entry): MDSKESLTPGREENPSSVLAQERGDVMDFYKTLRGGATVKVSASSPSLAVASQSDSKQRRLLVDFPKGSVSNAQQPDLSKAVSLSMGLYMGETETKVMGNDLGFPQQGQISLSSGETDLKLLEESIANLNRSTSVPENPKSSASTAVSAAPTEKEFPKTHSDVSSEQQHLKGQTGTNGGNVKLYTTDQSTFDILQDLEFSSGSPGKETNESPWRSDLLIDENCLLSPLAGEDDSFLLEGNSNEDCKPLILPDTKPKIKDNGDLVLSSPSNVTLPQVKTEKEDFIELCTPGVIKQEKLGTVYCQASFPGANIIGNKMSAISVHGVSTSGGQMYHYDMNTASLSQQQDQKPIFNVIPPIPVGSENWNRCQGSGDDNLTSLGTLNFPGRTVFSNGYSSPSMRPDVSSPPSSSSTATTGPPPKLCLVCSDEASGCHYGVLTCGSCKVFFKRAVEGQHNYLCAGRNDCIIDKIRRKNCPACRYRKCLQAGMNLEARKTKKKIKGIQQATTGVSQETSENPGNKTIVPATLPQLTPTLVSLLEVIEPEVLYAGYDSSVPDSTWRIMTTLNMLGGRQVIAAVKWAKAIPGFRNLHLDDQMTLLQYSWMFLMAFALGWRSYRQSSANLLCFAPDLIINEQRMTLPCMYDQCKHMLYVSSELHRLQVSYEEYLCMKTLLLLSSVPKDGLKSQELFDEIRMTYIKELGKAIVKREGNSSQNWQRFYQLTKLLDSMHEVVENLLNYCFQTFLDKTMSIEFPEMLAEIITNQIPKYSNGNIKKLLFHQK
READOUT_NAME: log10 of EC50 (log10 of the value in nM)

{"columns": ["COMPOUND", "log10 of EC50"],
 "data": [
  ["CC(C)(C(=O)Nc1nccs1)C(c1ccccc1)c1ccc2c(-c3ccc(F)cc3)ncn2c1 (single isomer, unassigned; enantiomer 2)", 0.78],
  ["CC(C)(C(=O)Nc1nncs1)C(c1ccccc1)c1ccc2c(-c3ccc(F)cc3)ncn2c1 (stereo not drawn)", 1.56],
  ["CC(C)(C(=O)Nc1nccs1)C(c1ccccc1)c1ccn2c(-c3ccccc3)ncc2c1 (stereo not drawn)", 1.78],
  ["CC(C)(C(=O)Nc1nncs1)C(c1ccccc1)c1ccn2c(-c3ccccc3)ncc2c1 (single isomer, unassigned; enantiomer 2)", 2.40],
  ["CC(C)(C(=O)Nc1nncs1)C(c1ccccc1)c1ccn2c(-c3ccccc3)ncc2c1 (stereo not drawn)", 2.95],
  ["CC(C)(C(=O)Nc1nccs1)C(c1ccccc1)c1ccc2c(-c3ccc(F)c(Cl)c3)ncn2c1 (stereo not drawn)", 2.06]
]}
